Target entity: GCK (Homo sapiens)
Sequence (Q12851 1-820): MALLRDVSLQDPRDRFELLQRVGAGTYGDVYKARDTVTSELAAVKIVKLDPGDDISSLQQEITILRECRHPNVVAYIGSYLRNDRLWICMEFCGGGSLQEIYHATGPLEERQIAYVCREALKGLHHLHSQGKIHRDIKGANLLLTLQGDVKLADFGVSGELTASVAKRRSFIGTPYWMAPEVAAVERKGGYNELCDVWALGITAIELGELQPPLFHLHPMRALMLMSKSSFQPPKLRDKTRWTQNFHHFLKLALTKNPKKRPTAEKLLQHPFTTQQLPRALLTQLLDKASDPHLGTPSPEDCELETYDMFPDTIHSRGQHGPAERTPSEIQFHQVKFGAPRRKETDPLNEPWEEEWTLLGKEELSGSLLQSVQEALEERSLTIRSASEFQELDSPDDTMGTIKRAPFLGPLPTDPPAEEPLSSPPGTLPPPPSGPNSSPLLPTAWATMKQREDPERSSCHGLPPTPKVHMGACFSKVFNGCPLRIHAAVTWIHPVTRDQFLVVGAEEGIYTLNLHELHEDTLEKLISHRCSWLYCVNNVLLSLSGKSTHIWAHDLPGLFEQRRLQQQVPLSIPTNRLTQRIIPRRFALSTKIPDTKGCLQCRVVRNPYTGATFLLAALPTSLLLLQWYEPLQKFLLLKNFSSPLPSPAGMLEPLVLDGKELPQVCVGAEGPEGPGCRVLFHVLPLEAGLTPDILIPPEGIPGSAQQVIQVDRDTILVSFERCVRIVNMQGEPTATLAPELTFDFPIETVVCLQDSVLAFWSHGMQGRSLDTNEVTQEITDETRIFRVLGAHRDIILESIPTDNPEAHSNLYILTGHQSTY
Protocol summary: Kinase profiling (radiometric filter-binding)
Assay type: biochemical
Measurement setup: 1 µM inhibitor, read-out: Residual activity, %
Experimental: Kinase selectivity profiling was performed using the commercial service provided by the MRC PPU International Centre for Kinase Profiling (Dundee, UK) using a radiometric filter-binding assay. Kinases used for analysis were of human origin. The ATP concentration applied for inhibition measurements was at or below the ATP KM value of the particular PK. […] Residual activities were expressed as the percentage of retained activity compared to the control without inhibitor.
Square brackets hold non-standard residues; d marks the D form. Peptide text beside a SMILES is read from it. * marks the point of attachment. X3 = O=C(CCCCCNCc1nc2c(sc3cc(Br)cnc32)c(=O)[nH]1)*
Catalogue of remaining activity at 1 µM readings, one per entry.
Just the number please, in %, no unit attached.

N=C(N)NCCC[C@@H](NC(=O)CNC(=O)[C@@H](CCCNC(=N)N)NC(=O)[C@@H](CCCNC(=N)N)NC(=O)CCCCCCCNCc1nc2c(sc3ccc(Br)cc32)c(=O)[nH]1)C(=O)N[C@H](CCCCN)C(N)=O [Compound 2, BBTP-Aoc-(D-Arg)2-Gly-D-Arg-D-Lys-NH2] :: 114

Return reported remaining activity at 1 µM; argument: N=C(N)NCCC[C@@H](NC(=O)CCCCCNC(=O)Cn1cnc2c(I)c(I)c(I)c(I)c21)C(=O)N[C@H](CCCNC(=N)N)C(=O)N[C@H](CCCNC(=N)N)C(=O)N[C@H](CCCNC(=N)N)C(=O)N[C@H](CCCNC(=N)N)C(=O)N[C@H](CCCNC(=N)N)C(=O)N[C@H](CCCCN)C(N)=O [ARC-3125, TIBI-CH2-C(=O)-Ahx-(D-Arg)6-D-Lys-NH2]
56

Same read-out for N=C(N)NCCC[C@@H](NC(=O)CNC(=O)[C@@H](CCCNC(=N)N)NC(=O)[C@@H](CCCNC(=N)N)NC(=O)CCCCCCCNCc1nc2c(sc3cc(Br)cnc32)c(=O)[nH]1)C(=O)N[C@H](CCCCN)C(N)=O [Compound 1, BPTP-Aoc-(D-Arg)2-Gly-D-Arg-D-Lys-NH2] ?
112

Same read-out for N=C(N)NCCC[C@@H](NC(=O)CCCCCNCc1nc2c(sc3cc(Br)cnc32)c(=O)[nH]1)C(=O)N[C@H](CCCNC(=N)N)C(=O)N[C@H](CCCNC(=N)N)C(=O)N[C@H](CCCNC(=N)N)C(=O)N[C@H](CCCNC(=N)N)C(=O)N[C@H](CCCNC(=N)N)C(=O)N[C@H](CCCCN)C(N)=O [ARC-3126, BPTP-Ahx-(D-Arg)6-D-Lys-NH2] (X3-[dR][dR][dR][dR][dR][dR][dK]-NH2) ?
88

Same read-out for N=C(N)NCCC[C@@H](NC(=O)CNC(=O)[C@@H](CCCNC(=N)N)NC(=O)[C@@H](CCCNC(=N)N)NC(=O)Cn1cc(CNCc2nc3c(sc4ccc(Br)cc43)c(=O)[nH]2)nn1)C(=O)N[C@H](CCCCN)C(N)=O [Compound 3, BBTP-Amt-(D-Arg)2-Gly-D-Arg-D-Lys-NH2] ?
97
